This collection of values is drawn from PubChem BioAssay AID248.

- Test system: L1210 leukemia ip in BDF1 mice, survival T/C
- Protocol details: NCI In Vivo Anticancer Drug Screen. Data for tumor model L1210 Leukemia (intraperitoneal) in B6D2F1 (BDF1) mice
- Condition summary: endpoint: mean survival time; dose: 100.0 mg/kg/injection; schedule: Q04DX003 (ip); vehicle: saline; higher = longer survival
Toxic doses and inconclusive results are not listed.
Reported endpoint: T/C

**Query** Answer with reported T/C of O=C1OC(=O)C2C3c4ccccc4C(c4ccccc43)C12 (centres undefined)
**Result** 98 % of control

**Query** Answer with reported T/C of CCCN(CCC)C(=O)c1ccncc1
**Result** 101 % of control

**Query** Answer with reported T/C of CCn1c(O)c(C=N)c(=O)[nH]c1=O
**Result** 88 % of control

**Query** Answer with reported T/C of c1ccc(C[N+](Cc2ccccc2)=C2CCCCC2)cc1
**Result** 98 % of control

----------
Please go through the items and note down their T/C.
- Tested on: L1210 leukemia ip in BDF1 mice, survival T/C
- Protocol details: NCI In Vivo Anticancer Drug Screen. Data for tumor model L1210 Leukemia (intraperitoneal) in B6D2F1 (BDF1) mice
- Condition summary: endpoint: mean survival time; dose: 400.0 mg/kg/injection; schedule: Q01DX009 (ip); vehicle: Klucel (hydroxypropylcellulose) (HPC); higher = longer survival
- Protocol: The antitumor activity of compounds was measured in mice bearing transplantable tumors. Survival or tumor size were measured and the results are expressed as the measurement made in the treated group (T) divided by the measurement made in the vehicle treated control group (C). The tumor model used in this assay is L1210 Leukemia (intraperitoneal) in B6D2F1 (BDF1) mice
Toxic doses and inconclusive results are not listed.

**Query** Answer with reported T/C of O=C(Cc1cccc([N+](=O)[O-])c1)Nc1ccccc1
**Result** 93 % of control

**Query** Answer with reported T/C of O=C(Nc1ccc2c(c1)C(=O)c1ccccc1C2=O)Nc1cc(C(F)(F)F)ccc1Cl
**Result** 88 % of control

**Query** Answer with reported T/C of CC(C)(C)NC(=O)Oc1ccc(-c2ccccc2)cc1
**Result** 95 % of control

**Query** Answer with reported T/C of COc1ccc(CC(CO)C(CO)Cc2ccc(OC)c(OC)c2)cc1OC (configuration not stated)
**Result** 93 % of control

**Query** Answer with reported T/C of Cc1c(Cl)cccc1NC(=O)c1ccccc1C(=O)O
**Result** 102 % of control

**Query** Answer with reported T/C of O=C(Nc1ccccc1)Nc1ccc([N+](=O)[O-])cc1
**Result** 86 % of control

**Query** Answer with reported T/C of O=C(NCCCl)Nc1cccc2cccnc12
**Result** 98 % of control

**Query** Answer with reported T/C of NC(=O)Nc1ccccc1
**Result** 103 % of control

**Query** Answer with reported T/C of Cc1cc(N=Cc2ccc(Cl)cc2)c(N=Cc2ccc(Cl)cc2)cc1C
**Result** 97 % of control

**Query** Answer with reported T/C of O=C(NCCCCc1ccccc1)c1ccccc1
**Result** 106 % of control

**Query** Answer with reported T/C of CCOC(=O)c1ccc(NC(=O)Oc2cc(C)ccc2C(C)C)cc1
**Result** 94 % of control

**Query** Answer with reported T/C of COc1ccc(C=O)c(O)c1
**Result** 95 % of control
